- Target System: human mAChR M1 (Homo sapiens, UniProt P11229)
- Sequence (P11229 1-460): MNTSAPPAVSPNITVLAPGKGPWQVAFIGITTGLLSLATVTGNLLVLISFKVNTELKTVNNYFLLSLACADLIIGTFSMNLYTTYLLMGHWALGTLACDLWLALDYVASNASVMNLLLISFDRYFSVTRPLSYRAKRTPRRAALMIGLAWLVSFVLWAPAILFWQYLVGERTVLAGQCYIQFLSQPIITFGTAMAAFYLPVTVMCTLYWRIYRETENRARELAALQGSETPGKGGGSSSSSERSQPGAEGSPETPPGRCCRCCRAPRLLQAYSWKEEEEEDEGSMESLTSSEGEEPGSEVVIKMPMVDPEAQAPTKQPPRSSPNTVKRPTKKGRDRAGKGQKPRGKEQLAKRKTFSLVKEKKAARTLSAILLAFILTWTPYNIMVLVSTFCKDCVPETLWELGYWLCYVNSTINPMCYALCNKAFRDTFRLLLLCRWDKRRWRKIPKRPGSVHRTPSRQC
- Protocol Notes: mAChR M1 cell-based functional assay (calcium mobilization), agonist activity upon compound addition alone
- Settings: CHO-K1 cells expressing hM1; compound alone; relative to the maximum for acetylcholine
Result Type: Emax

>>> result("Cc1c(Cc2ccc(-n3cccn3)cc2)cc(C(=O)N[C@H]2CC[C@@H]2O)nc1-c1ccn(C)n1 [Compound 60]")
"< 5%"
>>> result("Cc1c(Cc2ccc(-n3cccn3)cc2)cc(C(=O)NCC2CCOCC2)nc1-c1ccn(C)n1 [Compound 61]")
"< 5%"
>>> result("Cc1nc(-c2ccc(Cc3cc(C(=O)N[C@H]4CCC[C@@H]4O)nc(-n4cccn4)c3C)cc2)co1 [Compound 54]")
"< 5%"
>>> result("Cc1c(Cc2ccc(-c3ccn(C)n3)cc2)cc(C(=O)NC[C@H]2CCCO2)nc1-c1ccn(C)n1 [Compound 16]")
"< 5%"
>>> result("Cc1c(Cc2ccc(-n3cccn3)cc2)cc(C(=O)NC2CCOCC2(C)C)nc1-c1ccn(C)n1 (centres unmarked) [Compound 64]")
"< 5%"
>>> result("Cn1cc(-c2ccc(Cc3cc(C(=O)NC4CCOCC4)nc(-c4ccn(C)n4)c3)cn2)cn1 [Compound 4]")
"< 5%"
>>> result("Cc1c(Cc2ccc(-c3ccn(C)n3)cc2)cc(C(=O)N[C@H]2CC[C@@H]2O)nc1-c1ccn(C)n1 [Compound 13]")
"< 5%"
>>> result("Cc1c(Cc2ccc(-c3ccn(C)n3)cc2)cc(C(=O)NC[C@@H]2CCCO2)nc1-c1ccn(C)n1 [Compound 15]")
"< 5%"

So for Cc1c(Cc2ccc(-n3cccn3)cc2)cc(C(=O)N[C@H]2CCC[C@@H]2O)nc1-c1ccn(C)n1 [Compound 59] , the logged Emax turned out to be < 5%

// field: Emax; key: Cn1ccc(-c2ccc(Cc3cc(C(=O)N[C@H]4CCCC[C@@H]4O)nc(-c4ccn(C)n4)c3)cc2)n1 [Compound 34] ; value = < 5%

Sure, the documented Emax for Cc1nc(-c2ccc(Cc3cc(C(=O)NC4CC5(COC5)C4)nc(-n4cccn4)c3)cc2)co1 [Compound 23] is < 5%

Lookup result for Cn1ccc(-c2ccc(Cc3cc(C(=O)N[C@H]4CCOC[C@@H]4O)nc(-c4ccn(C)n4)c3)cc2)n1 [Compound 37] ; measured Emax: < 5%

For Cc1c(Cc2ccc(-c3ccn(C)n3)cc2)cc(C(=O)NC2CC3(COC3)C2)nc1-c1ccn(C)n1 [Compound 11] the compound record lists Emax as < 5%

Documented Emax of Cn1cc(-c2ccc(Cc3cc(C(=O)N[C@H]4CCCC[C@@H]4O)nc(-n4cccn4)c3)cn2)cn1 [Compound 20] : < 5%

Cc1c(Cc2ccc(-n3cccn3)cc2)cc(C(=O)N[C@H]2CCOC[C@@H]2O)nc1-c1ccn(C)n1 [Compound 55] yielded Emax of 22%

Given item Cc1c(Cc2ccc(-c3ccn(C)n3)cc2)cc(C(=O)NCC2CCOCC2)nc1-c1ccn(C)n1 [Compound 14] , the value recorded as its Emax is < 5%

Please fill in: Emax reported for Cn1cc(-c2cc(Cc3ccc(-c4ccn(C)n4)cc3)cc(C(=O)N[C@H]3CCCC[C@@H]3O)n2)cn1 [Compound 40] = < 5%

According to the records, this compound Cc1ccc(Cc2cc(C(=O)N[C@H]3CCC[C@@H]3O)nc(-c3ccn(C)n3)c2C)cn1 [Compound 67] displays Emax of < 5%

Field Emax (entry Cn1cc(-c2ccc(Cc3cc(C(=O)N[C@H]4CCC[C@@H]4O)nc(-c4ccn(C)n4)c3)cn2)cn1 [Compound 6] ) reads < 5%

Emax reading for Cn1cc(-c2ccc(Cc3cc(C(=O)N[C@H]4CCCC[C@@H]4O)nc(-c4ccn(C)n4)c3)cn2)cn1 [Compound 3] : < 5%

Input Cc1c(Cc2ccc(-c3ccn(C)n3)nc2)cc(C(=O)N[C@H]2CCC[C@@H]2O)nc1-n1cccn1 [Compound 52] . Output Emax: 9%
